- assayed_target: horse-serum BuChE (EC3.1.1.8) (Equus caballus, UniProt P81908)
- Sequence (P81908 whole entry): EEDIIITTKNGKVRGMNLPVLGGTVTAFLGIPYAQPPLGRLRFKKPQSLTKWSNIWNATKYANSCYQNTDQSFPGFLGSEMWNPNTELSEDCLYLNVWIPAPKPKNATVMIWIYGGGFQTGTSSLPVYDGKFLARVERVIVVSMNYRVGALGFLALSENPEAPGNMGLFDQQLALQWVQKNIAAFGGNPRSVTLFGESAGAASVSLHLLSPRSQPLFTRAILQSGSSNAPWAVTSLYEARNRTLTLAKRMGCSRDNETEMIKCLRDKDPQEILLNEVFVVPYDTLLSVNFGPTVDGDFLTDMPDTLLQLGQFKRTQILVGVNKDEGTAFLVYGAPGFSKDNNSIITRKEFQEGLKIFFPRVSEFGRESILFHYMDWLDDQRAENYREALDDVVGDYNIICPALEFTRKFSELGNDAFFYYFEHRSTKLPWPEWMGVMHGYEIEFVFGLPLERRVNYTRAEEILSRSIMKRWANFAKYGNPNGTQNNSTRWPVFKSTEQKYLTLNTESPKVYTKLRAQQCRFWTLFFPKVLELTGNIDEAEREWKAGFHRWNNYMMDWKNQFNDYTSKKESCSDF
- protocol_text: biochemical
- Format: biochemical
- test_settings: substrate butyrylthiocholine; 37°C, pH 8.0

molecule	relation_sign	IC50 [µM]
CCN(CC)Cc1c(OCC=C(C)C)cc2oc3ccccc3c(=O)c2c1O [4b]	=	0.51
C=CCOc1cc2oc3ccccc3c(=O)c2c(O)c1CN(C)C [3a]	=	4.66
CC(C)=CCOc1cc2oc3ccccc3c(=O)c2c(O)c1CN1CCOCC1 [4e]	=	8.83
C=CCOc1cc2oc3ccccc3c(=O)c2c(O)c1CN1CCOCC1 [3e]	>	100
COc1cc2oc3ccccc3c(=O)c2c(O)c1CN1CCCCC1 [2d]	=	10.6
COc1cc2oc3ccccc3c(=O)c2c(O)c1CN(C)C [2a]	=	10.9
C=CCOc1cc2oc3ccccc3c(=O)c2c(O)c1CN(CC)CC [3b]	=	1.54
C=CCOc1cc2oc3ccccc3c(=O)c2c(O)c1CN1CCCCC1 [3d]	=	1.73

* * *

- assayed_target: horse-serum BuChE (EC3.1.1.8) (Equus caballus, UniProt P81908)
- protocol_text: biochemical
- Format: biochemical
- test_settings: ratio IC50 BuChE / IC50 AChE
Measured Selectivity for BuChE/AChE accompanies every entry in the list below.
outcome_measure: Selectivity for BuChE/AChE

molecule	recorded_measurement
CCN(CC)Cc1c(OC)cc2oc3ccccc3c(=O)c2c1O [2b]	2.83
O=c1c2ccccc2oc2cc(O)c(CN3CCOCC3)c(O)c12 [1e]	>1.05
CC(C)=CCOc1cc2oc3ccccc3c(=O)c2c(O)c1CN1CCCCC1 [4d]	0.10
CC(C)=CCOc1cc2oc3ccccc3c(=O)c2c(O)c1CN(C)C [4a]	0.57
CC(C)=CCOc1cc2oc3ccccc3c(=O)c2c(O)c1CN1CCOCC1 [4e]	0.37
C=CCOc1cc2oc3ccccc3c(=O)c2c(O)c1CN1CCCC1 [3c]	0.70
C=CCOc1cc2oc3ccccc3c(=O)c2c(O)c1CN(C)C [3a]	0.80
COc1cc2oc3ccccc3c(=O)c2c(O)c1CN1CCCCC1 [2d]	1.53
COc1cc2oc3ccccc3c(=O)c2c(O)c1CN1CCOCC1 [2e]	>12.89
CCN(CC)Cc1c(O)cc2oc3ccccc3c(=O)c2c1O [1b]	0.50
CN(C)Cc1c(O)cc2oc3ccccc3c(=O)c2c1O [1a]	0.59
C=CCOc1cc2oc3ccccc3c(=O)c2c(O)c1CN(CC)CC [3b]	0.26
C=CCOc1cc2oc3ccccc3c(=O)c2c(O)c1CN1CCCCC1 [3d]	0.47
C=CCOc1cc2oc3ccccc3c(=O)c2c(O)c1CN1CCOCC1 [3e]	>1.34
COc1cc2oc3ccccc3c(=O)c2c(O)c1CN1CCCC1 [2c]	1.72
COc1cc2oc3ccccc3c(=O)c2c(O)c1CN(C)C [2a]	4.66
CC(C)=CCOc1cc2oc3ccccc3c(=O)c2c(O)c1CN1CCCC1 [4c]	0.49
CCN(CC)Cc1c(OCC=C(C)C)cc2oc3ccccc3c(=O)c2c1O [4b]	0.20
O=c1c2ccccc2oc2cc(O)c(CN3CCCC3)c(O)c12 [1c]	0.43
O=c1c2ccccc2oc2cc(O)c(CN3CCCCC3)c(O)c12 [1d]	0.54

* * *

- assayed_target: UniProtKB O42275
- Sequence (O42275 24-633): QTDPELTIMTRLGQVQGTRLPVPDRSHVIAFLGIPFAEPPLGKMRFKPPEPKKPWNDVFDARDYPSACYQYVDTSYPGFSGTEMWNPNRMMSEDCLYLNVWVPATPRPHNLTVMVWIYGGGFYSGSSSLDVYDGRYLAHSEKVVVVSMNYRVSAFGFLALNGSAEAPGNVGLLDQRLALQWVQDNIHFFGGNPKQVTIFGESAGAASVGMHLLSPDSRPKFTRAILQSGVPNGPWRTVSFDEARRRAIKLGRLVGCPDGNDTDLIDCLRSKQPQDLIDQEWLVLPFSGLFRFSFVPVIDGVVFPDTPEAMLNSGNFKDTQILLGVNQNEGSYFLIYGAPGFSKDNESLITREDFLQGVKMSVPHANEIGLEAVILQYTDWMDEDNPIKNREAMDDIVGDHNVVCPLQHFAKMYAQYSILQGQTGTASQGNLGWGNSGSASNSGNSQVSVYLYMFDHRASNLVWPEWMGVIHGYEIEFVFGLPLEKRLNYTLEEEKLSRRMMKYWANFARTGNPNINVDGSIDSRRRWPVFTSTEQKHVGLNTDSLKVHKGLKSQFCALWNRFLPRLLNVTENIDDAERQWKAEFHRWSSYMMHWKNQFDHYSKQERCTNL
- protocol_text: biochemical
- test_settings: means ± standard deviation of triplicate independent experiments; substrate acetylthiocholine iodide; 37°C, pH 8.0
Measured log10(IC50) accompanies every entry in the list below.
outcome_measure: log10(IC50) (log10 of the value in µM)

molecule	log10(IC50)
COc1cc2oc3ccccc3c(=O)c2c(O)c1CN1CCCCC1 [2d]	0.85
CCN(CC)Cc1c(O)cc2oc3ccccc3c(=O)c2c1O [1b]	1.87
CC(C)=CCOc1cc2oc3ccccc3c(=O)c2c(O)c1CN1CCCC1 [4c]	0.77
CC(C)=CCOc1cc2oc3ccccc3c(=O)c2c(O)c1CN1CCCCC1 [4d]	1.74
CCN(CC)Cc1c(OCC=C(C)C)cc2oc3ccccc3c(=O)c2c1O [4b]	0.42
O=c1c2ccccc2oc2cc(O)c(CN3CCCCC3)c(O)c12 [1d]	1.90
C=CCOc1cc2oc3ccccc3c(=O)c2c(O)c1CN(CC)CC [3b]	0.78
CC(C)=CCOc1cc2oc3ccccc3c(=O)c2c(O)c1CN1CCOCC1 [4e]	1.38
C=CCOc1cc2oc3ccccc3c(=O)c2c(O)c1CN1CCOCC1 [3e]	1.87
O=c1c2ccccc2oc2cc(O)c(CN3CCOCC3)c(O)c12 [1e]	1.98
CC(C)=CCOc1cc2oc3ccccc3c(=O)c2c(O)c1CN(C)C [4a]	0.42
